tested on: foxtail, giant (giant foxtail, Setaria faberi); assay: Test C preemergence, visual plant response rating; type: in vivo; details: Test C, 31 g ai/ha, 0 is no effect, 100 is complete control
Excerpt: […]
measured endpoint: Foxtail, Giant plant response rating (0 to 100 scale)
Numbers only.

>>> value("C#CCO/N=C(\\c1cc(Cl)cc(Cl)c1Cl)c1c(O)c(C)nn(C)c1=O")
80
>>> value("CO/N=C(\\c1c(O)c(Cl)nn(C)c1=O)c1ccc(F)c2ccccc12")
50

Fill in Foxtail, Giant plant response rating (0 to 100 scale) for each of the 6 compounds listed.
1. C#CCO/N=C(/c1ccc(F)c(Cl)c1)c1c(O)c(C)nn(C)c1=O
2. CO/N=C(\c1cc(F)cc(F)c1C)c1c(O)c(C)nn(C)c1=O
3. C#CCON=C(c1cccc(OCC)c1)c1c(O)c(C)nn(C)c1=O
4. C#CCO/N=C(/c1cc(C)cc(Cl)c1)c1c(O)c(C)nn(C)c1=O
5. CON=C(c1ccc(F)c(Br)c1)c1c(O)c(C)nn(C)c1=O
6. Cc1nn(C)c(=O)c(/C(=N/OC(C)C)c2cccc3cc(Cl)ccc23)c1O

Data returned:
10
0
0
60
0
60

Data request: So what's the measured Foxtail, Giant plant response rating (0 to 100 scale) for this one? `CO/N=C(\c1cccc(/C=C/Cl)c1)c1c(O)c(C)nn(C)c1=O`
Data returned: 0

----------
Would you mind telling me the reported Corn plant response rating (0 to 100 scale) of each entry?
system: corn (Zea mays); assay: Test A postemergence, visual plant response rating; format: in vivo; details: 500 g ai/ha, postemergence; 0 is no effect, 100 is complete control
Numbers only.

Example cases with answers are listed next.
>>> value("CON=C(c1c(O)c(C)nn(C)c1=O)c1cccc2cc(Br)ccc12 [Compound 100]")
40
>>> value("Cc1nn(C)c(=O)c(/C(=N\\OC(C)C)c2ccc(F)c3ccccc23)c1O [Compound 89]")
30
>>> value("CON=C(c1cc(Cl)ccc1C)c1c(O)c(C)nn(C)c1=O [Compound 65]")
0
>>> value("CO/N=C(/c1cscc1C)c1c(O)c(C)nn(C)c1=O [Compound 140]")
20

Okay, here is my list. What is Corn plant response rating (0 to 100 scale) for each of these?
1. CO/N=C(\c1cccc(Cl)c1)c1c(O)c(C)nn(C)c1=O [Compound 10]
2. CON=C(c1c(O)c(C)nn(C)c1=O)c1cccc2sccc12 [Compound 59]
3. CON=C(c1cc(C(F)(F)F)ccc1Cl)c1c(O)c(C)nn(C)c1=O [Compound 73]
4. CO/N=C(\c1csc(C)c1)c1c(O)c(C)nn(C)c1=O [Compound 44]
5. CCCc1ccccc1/C(=N\OC)c1c(O)c(C)nn(C)c1=O [Compound 92]

Data returned:
1. 0
2. 20
3. 20
4. 20
5. 10

Go through the items and report each one's Corn plant response rating (0 to 100 scale).
1. CON=C(c1ccccc1C1CC1)c1c(O)c(C)nn(C)c1=O [Compound 105]
2. CCO/N=C(\c1cccc(C)c1C)c1c(O)c(C)nn(C)c1=O [Compound 25]

Data returned:
1: 30; 2: 0

----------
test system: sedge umbrella (small-flower umbrella sedge, Cyperus difformis); test: Test D flooded paddy test, visual plant response rating; assay type: in vivo; details: 250 g ai/ha, scale 0 to 100 (0 no effect, 100 complete control), 13 to 15 d
measured endpoint: Plant response rating, Sedge, Umbrella (Flood)
Give bare numbers.

// for each molecule in input: emit Plant response rating, Sedge, Umbrella (Flood)
1. CO/N=C(/c1ccc(F)c(Cl)c1)c1c(O)c(C)nn(C)c1=O
2. CC(C)O/N=C(/c1c(O)c(Cl)nn(C)c1=O)c1ccc(F)c2ccccc12
3. CC(C)O/N=C(\c1c(O)c(Cl)nn(C)c1=O)c1cc(Br)cc2ccccc12
4. CCO/N=C(\c1c(O)c(Cl)nn(C)c1=O)c1cc(Br)cc2ccccc12
5. C#CCO/N=C(\c1c(O)c(Cl)nn(C)c1=O)c1ccc(F)c2ccccc12
6. C#CCO/N=C(/c1cc(Cl)cc(Br)c1)c1c(O)c(C)nn(C)c1=O
7. Cc1nn(C)c(=O)c(/C(=N/OC(C)C)c2cc(Cl)cc(Cl)c2Cl)c1O
8. Cc1nn(C)c(=O)c(/C(=N/OCc2ccccc2)c2ccc(F)c3ccccc23)c1O

Data returned:
1. 0
2. 80
3. 85
4. 90
5. 0
6. 45
7. 95
8. 65

# credit: patent US20210045385A1
